Answer each item with its documented IC50.
- Test system: BaF3
- testProtocol: Antiproliferative activity against gefitinib resistant mouse BA/F3 cells expressing EGFR L858R/T790M double mutant after 72 hrs by MTS assay
- Format: functional, cell-based
- experimentalContext: BaF3, 72 h
Express your answer in nM, writing the number without its unit.

Query: IC50 for `C=CC(=O)Nc1cccc(Oc2nc(Nc3ccc(N4CCN(C)CC4)cc3)ncc2Cl)c1` ?
Result: 5

Query: IC50 for `C=CC(=O)Nc1cccc(Sc2nc(Nc3ccc(N4CCN(C)CC4)cc3)ncc2Cl)c1` ?
Result: 9

Query: IC50 for `C=CC(=O)Nc1cccc(Oc2nc(Nc3ccc(N4CCN(C)CC4)cc3OC)ncc2Cl)c1` ?
Result: 8
